molecular target: 5-hydroxytryptamine receptor 2B (Homo sapiens); assay type: functional, cell-based; note: assay procedure not described here
Sequence (P41595 whole entry): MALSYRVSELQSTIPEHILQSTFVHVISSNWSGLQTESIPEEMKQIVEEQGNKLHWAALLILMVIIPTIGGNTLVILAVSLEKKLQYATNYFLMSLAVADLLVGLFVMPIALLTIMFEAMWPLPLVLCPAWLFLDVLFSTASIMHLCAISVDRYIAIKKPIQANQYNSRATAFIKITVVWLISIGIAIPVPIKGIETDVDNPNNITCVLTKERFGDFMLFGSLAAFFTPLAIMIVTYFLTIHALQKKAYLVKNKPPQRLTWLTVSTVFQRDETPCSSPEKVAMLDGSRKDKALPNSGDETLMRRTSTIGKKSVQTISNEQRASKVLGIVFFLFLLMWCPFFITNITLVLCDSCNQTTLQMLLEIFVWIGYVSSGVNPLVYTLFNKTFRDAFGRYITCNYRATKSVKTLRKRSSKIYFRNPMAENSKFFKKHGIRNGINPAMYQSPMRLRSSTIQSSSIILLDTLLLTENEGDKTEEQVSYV
Assay Metric: AC50

Reference set, count: 3
Compound	Assay System	AC50
CC(C)Cc1ccc(C(C)C(=O)O)cc1 (centres undefined)	5-hydroxytryptamine receptor 2B (Homo sapiens)	> 10 µM
CC(=O)O[C@H](CC(=O)[O-])C[N+](C)(C)C	5-hydroxytryptamine receptor 2B (Homo sapiens)	> 30 µM
CN1C(C(=O)Nc2ccccn2)=C(O)c2ccccc2S1(=O)=O	5-hydroxytryptamine receptor 2B (Homo sapiens)	> 10 µM

The compound CC(=O)OCC(=O)[C@@]1(O)[C@H](C)C[C@H]2[C@@H]3CCC4=CC(=O)C=C[C@]4(C)[C@@]3(F)[C@@H](O)C[C@@]21C [DEXAMETHASONE ACETATE] , when measured on 5-hydroxytryptamine receptor 2B (Homo sapiens), yielded AC50 of > 10 µM

The compound COc1ccc(-c2noc(CC(=O)O)c2-c2ccc(OC)cc2)cc1 , when measured on 5-hydroxytryptamine receptor 2B (Homo sapiens), yielded AC50 of > 30 µM

The compound CC(N)C(O)c1ccccc1 (centres undefined) , when measured on 5-hydroxytryptamine receptor 2B (Homo sapiens), yielded AC50 of > 10 µM

The compound CCCCCC(=O)O[C@]1(C(C)=O)CC[C@H]2[C@@H]3CCC4=CC(=O)CC[C@]4(C)[C@H]3CC[C@@]21C [HYDROXYPROGESTERONE CAPROATE] , when measured on 5-hydroxytryptamine receptor 2B (Homo sapiens), yielded AC50 of > 30 µM

The compound CCN(CC)CCNC(=O)c1cc(S(C)(=O)=O)ccc1OC [TIAPRIDE] , when measured on 5-hydroxytryptamine receptor 2B (Homo sapiens), yielded AC50 of 29 µM

The compound Oc1ccc2c(c1)[C@@]13CCCC[C@@]1(O)[C@@H](C2)N(CC1CCC1)CC3 , when measured on 5-hydroxytryptamine receptor 2B (Homo sapiens), yielded AC50 of > 30 µM
